Values compiled from paper PMC11062899.

molecular target: human α-thrombin (Homo sapiens, UniProt P00734); experiment: Sub-library screen for active and permeable cyclic peptides (PAMPA plus thrombin inhibition); type: biochemical; conditions: PAMPA acceptor well after 14 h, 5 μM donor; crude; slopes normalized to DMSO
measured parameter: Residual thrombin activity: Top sample
API doc: respond with a numeric literal and nothing else, no unit.

See these solved cases before continuing.
O=C1C[C@H]2CCCN2C(=O)[C@H](Cc2ccccc2)NC(=O)[C@@H](NC(=O)c2ccc(Cl)s2)CCCSCc2cccc(n2)CSCCN1 [C3-X5-L1] = 64.7
CN1C(=O)[C@@H](NC(=O)c2ccc(Cl)s2)CCCSCCS(=O)(=O)CCSCCNC(=O)C[C@H]2CCCN2C(=O)[C@@H]1Cc1ccccc1 [C3-X32-L2] = 103.4
O=C1C[C@H]2CCCN2C(=O)[C@@H](Cc2ccccc2)NC(=O)[C@@H](NC(=O)c2ccc(Cl)s2)CCSCc2ccc(cc2)CSCCN1 [C2-X31-L3] = 96.0
O=C1C[C@H]2CCCN2C(=O)[C@H](Cc2ccccc2)NC(=O)[C@@H](NC(=O)c2ccc(Cl)s2)CCSCc2ccccc2CSCCN1 [C2-X5-L6] = 87.4

Q) Request - read-out Residual thrombin activity: Top sample | tested on human α-thrombin (Homo sapiens, UniProt P00734) | compound O=C1C[C@H]2CCCN2C(=O)[C@H](Cc2ccc(C(F)(F)F)cc2)NC(=O)[C@@H](NC(=O)c2ccc(Cl)s2)CSC/C=C/CSCCN1 [C1-X36-L4]
A) 96.8

Q) Request - read-out Residual thrombin activity: Top sample | tested on human α-thrombin (Homo sapiens, UniProt P00734) | compound COc1ccc(C[C@@H]2NC(=O)[C@@H](NC(=O)c3ccc(Cl)s3)CCSCC(=O)CSCCNC(=O)C[C@H]3CCCN3C2=O)cc1 [C2-X33-L7]
A) 102.7
